- Target System: T1, 5-Helix (HIV-1 group M subtype B, HXB2 (gp41 …, stabilised))
- T1 construct: also called designed protein based on HIV-1 gp41
- Experiment Notes: ELISA
- Details: one partner purified
Parameter: F_competitive (signal with 40 nM free 5-Helix / signal without). Scope: all listed entries.
Observed Property: F_competitive (signal with 40 nM free 5-Helix / signal without) (fraction)

{"Binder": "25C10 bivalent scFv on phage (scFv, V domains shown) VH: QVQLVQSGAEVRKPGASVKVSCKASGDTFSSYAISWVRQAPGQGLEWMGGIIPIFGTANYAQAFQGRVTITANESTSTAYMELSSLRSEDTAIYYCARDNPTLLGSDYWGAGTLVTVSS VL: DIQMTQSPSTLSASIGDRVTITCRASENIYGNLAWYQQKPGKAPKLLISRASRLASGAPSRFSGSGSGTDFTLTISSLQPDDFATYYCQQRYTYPLTFGGGTKLEIK", "Display Unit": "fraction", "Assay Value": 0.1}
{"Binder": "25C5 bivalent scFv on phage (scFv, V domains shown) VH: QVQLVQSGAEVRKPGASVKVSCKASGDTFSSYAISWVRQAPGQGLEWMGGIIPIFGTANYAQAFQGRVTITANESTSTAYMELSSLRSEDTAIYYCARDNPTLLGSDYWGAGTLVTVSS VL: DIQMTQSPSTLSASIGDRVTITCRASEDIHDYLAWYQQKPGKAPKLLISRASRLASGAPSRFSGSGSGTDFTLTISSLQPDDFATYYCQQNDSYPYTFGGGTKLEIK", "Display Unit": "fraction", "Assay Value": 0.5}
{"Binder": "16F6 bivalent scFv on phage (scFv, V domains shown) VH: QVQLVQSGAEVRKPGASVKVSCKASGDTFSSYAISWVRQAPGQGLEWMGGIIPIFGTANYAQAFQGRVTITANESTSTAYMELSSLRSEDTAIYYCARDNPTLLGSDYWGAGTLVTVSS VL: DIQMTQSPSTLSASIGDRVTITCRASESISSILAWYQQKPGKAPKLLISNASRLASGAPSRFSGSGSGTDFTLTISSLQPDDFATYYCQQRSNYPFTFGGGTKLEIK", "Display Unit": "fraction", "Assay Value": 0.8}
{"Binder": "16E12 bivalent scFv on phage (scFv, V domains shown) VH: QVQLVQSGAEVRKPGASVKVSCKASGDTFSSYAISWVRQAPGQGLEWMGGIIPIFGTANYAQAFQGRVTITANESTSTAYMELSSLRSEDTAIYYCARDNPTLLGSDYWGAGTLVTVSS VL: DIQMTQSPSTLSASIGDRVTITCRASEGIRRSLAWYQQKPGKAPKLLISNASHLASGAPSRFSGSGSGTDFTLTISSLQPDDFATYYCQQYYNYPRTFGGGTKLEIK", "Display Unit": "fraction", "Assay Value": 0.1}
{"Binder": "16D10 bivalent scFv on phage (scFv, V domains shown) VH: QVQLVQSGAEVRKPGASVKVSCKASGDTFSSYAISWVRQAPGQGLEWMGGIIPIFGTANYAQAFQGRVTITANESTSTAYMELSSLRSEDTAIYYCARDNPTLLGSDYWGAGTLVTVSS VL: DIQMTQSPSTLSASIGDRVTITCRASENIRGSLAWYQQKPGKAPKLLIYRASRLASGAPSRFSGSGSGTDFTLTISSLQPDDFATYYCQQHSDYPHTFGGGTKLEIK", "Display Unit": "fraction", "Assay Value": 0.7}

Values compiled from paper PMC3626704.
